Give pIC50 for every item shown.
- tested_system: GST-tagged recombinant full-length human Pim-2 (Homo sapiens)
- Construct: GST-tagged recombinant full-length human Pim-2; GST
- Sequence (Q9P1W9 whole entry): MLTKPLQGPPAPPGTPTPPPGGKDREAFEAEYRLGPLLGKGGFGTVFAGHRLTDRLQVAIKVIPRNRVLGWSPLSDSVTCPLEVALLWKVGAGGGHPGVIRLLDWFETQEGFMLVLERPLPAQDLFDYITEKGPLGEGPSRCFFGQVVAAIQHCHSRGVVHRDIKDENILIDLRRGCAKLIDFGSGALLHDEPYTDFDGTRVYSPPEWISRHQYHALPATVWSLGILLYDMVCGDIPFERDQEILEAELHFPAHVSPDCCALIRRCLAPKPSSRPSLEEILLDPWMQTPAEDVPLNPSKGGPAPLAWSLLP
- experiment: PIM-2 Assay (as Example A)
- assay_setup: averaged IC50; 4 μM ATP, 1.0 μM PIM2tide, 1.5 nM Pim-2
pIC50: −log10 of the molar value. Counter-ions that a name gives are not always drawn.

Below, each entry is followed by its recorded pIC50 result.
COc1cccc2ccc(-c3nnc4ccc([C@@H](N5CC[C@H](NCCF)C5)C(F)(F)F)cn34)nc12 [Example 80, dihydrochloride] :: < 7.00
CC(C)NC(=O)c1ccc2ccc(-c3nnc4ccc([C@H](N5CC[C@@H](N)C5)C(F)(F)F)cn34)nc2c1 :: < 7.00

Item COc1cccc2ccc(-c3nnc4ccc([C@@H](N5CCC(C)(O)C5)C(F)(F)F)cn34)nc12 (single isomer, unassigned; diastereomer 2) [Example 194, hydrochloride] : provide pIC50 < 6.00

====

- tested_system: GST-tagged recombinant full-length human Pim-2 (Homo sapiens)
- Construct: GST-tagged recombinant full-length human Pim-2; GST
- experiment: PIM-2 Assay (as Example A)
- Type: biochemical
- assay_setup: averaged IC50; 4 μM ATP, 1.0 μM PIM2tide, 1.5 nM Pim-2
pIC50: −log10 of the molar value. Where a name gives a salt, the structure may show the parent alone.
property_name: pIC50

Below, each entry is followed by its recorded pIC50 result.
CC(C)Oc1cccc2ccc(-c3nnc4ccc([C@@H](N5CC[C@@](N)(CF)C5)C(F)(F)F)cn34)nc12 (single isomer, unassigned) [Example 154, dihydrochloride] :: < 7.00
COc1ccc2ccc(-c3nnc4ccc([C@@H](N5CC[C@H](N)C5)C(F)(F)F)cn34)nc2c1Cl [Example 175, hydrochloride] :: < 7.00
N[C@H]1CCN([C@H](c2ccc3nnc(-c4ccc5cc(F)cc(C6CC6)c5n4)n3c2)C(F)(F)F)C1 [Example 177, dihydrochloride] :: < 7.00
CC(C)Oc1cccc2ccc(-c3nnc4ccc([C@H](N5CCC(C)(O)C5)C(F)(F)F)cn34)nc12 (single isomer, unassigned; diastereomer 1) [Example 199] :: < 6.00
COc1cc(F)cc2ccc(-c3nnc4ccc([C@@H](N5CC[C@](C)(N)C5)C(F)(F)F)cn34)nc12 [Example 248, dihydrochloride] :: < 6.00

Next compound, pIC50 to be filled in.
Item N[C@@H]1CCN([C@H](c2ccc3nnc(-c4ccc5ccc(C6CC6)cc5n4)n3c2)C(F)(F)F)C1 [Example 61, dihydrochloride] : provide pIC50 < 7.00

====

Entries below carry reported IC50 on PIM-1 (Homo sapiens).
Counter-ions that a name gives are not always drawn.
One number for each entry, in nM.

Below, each entry is followed by its recorded IC50 result.
CN[C@H]1CCN(C(c2ccc3nnc(-c4ccc5cccc(OCC6CC6)c5n4)n3c2)C(F)(F)F)C1 (some centres unmarked) [Example 20, dihydrochloride] :: 0.35
CCOc1cc2nc(-c3nnc4ccc([C@H](N5CC[C@H](CN)C5)C(F)(F)F)cn34)ccc2cc1F [Example 296, hydrochloride] :: 1.51
CCOc1cc2nc(-c3nnc4ccc([C@@H](N5C[C@@H](N)[C@H](OC)C5)C(F)(F)F)cn34)ccc2cc1F [Example 299, dihydrochloride] :: 0.55
N[C@H]1CCN(C(c2ccc3nnc(-c4ccc5ccc(-c6cccnc6)cc5n4)n3c2)C(F)(F)F)C1 (some centres unmarked) [Example 18, tri-hydrochloride] :: 0.25
Cc1c(-c2cnn(C)c2C)ccc2ccc(-c3nnc4ccc([C@@H](N5CC[C@H](N)C5)C(F)(F)F)cn34)nc12 [Example 214, dihydrochloride] :: 0.38
CC(C)Oc1cc(F)cc2ccc(-c3nnc4ccc([C@@H](N5CC[C@H](NCCO)C5)C(F)(F)F)cn34)nc12 [Example 102, dihydrochloride] :: 0.19

Look at each compound and report its IC50.
1. CO[C@@H](C)COc1ccc2ccc(-c3nnc4ccc([C@@H](N5CC[C@H](N)C5)C(F)(F)F)cn34)nc2c1 [Example 287, dihydrochloride]
2. COC[C@@H](C)Oc1cc(F)cc2ccc(-c3nnc4ccc([C@H](N5CC[C@](C)(N)C5)C(F)(F)F)cn34)nc12 [Example 221, dihydrochloride]
3. CCSc1ccc2ccc(-c3nnc4ccc([C@@H](N5CC[C@H](N)C5)C(F)(F)F)cn34)nc2c1 [Example 266, hydrochloride]
4. COCC(COC)Oc1cccc2ccc(-c3nnc4ccc([C@@H](N5CC[C@H](N)C5)C(F)(F)F)cn34)nc12 [Example 271, dihydrochloride]
5. COCCCOc1cc(F)cc2ccc(-c3nnc4ccc([C@@H](N5CC[C@H](N)C5)C(F)(F)F)cn34)nc12 [Example 233, dihydrochloride]
6. CO[C@@H](C)COc1cc2nc(-c3nnc4ccc([C@H](N5CC[C@](C)(N)C5)C(F)(F)F)cn34)ccc2cc1F [Example 322, di-hydrochloride]
7. COC[C@H](C)Oc1ccc2ccc(-c3nnc4ccc([C@@H](N5CC[C@H](N)C5)C(F)(F)F)cn34)nc2c1 [Example 150, dihydrochloride]

1: 0.32; 2: 0.41; 3: 0.5; 4: 0.73; 5: 0.28; 6: 0.08; 7: 0.41

====

- tested_system: recombinant rat PIM-3 (Rattus norvegicus)
- experiment: PIM-3 Assay (as Example A)
- assay_setup: averaged IC50; 30 μM ATP, 3.75 μM PIM2tide, 0.5 nM PIM-3
pIC50: −log10 of the molar value. Counter-ions that a name gives are not always drawn.
Entries get a class label from measured pIC50. See ranges: class A (below 8), class B (8 to below 9), class C (9 or more)

CO[C@H](C)COc1cc(-c2nnc3ccc([C@@H](N4CC[C@H](N)C4)C(F)(F)F)cn23)nc2ccccc12 [Example 291, formate] :: class C
CC(C)Oc1cc(F)cc2ccc(-c3nnc4ccc([C@@H](N5CC[C@H](N)C5)C(F)(F)F)cn34)nc12 [Example 86, hydrochloride] :: class C

Attention now turns to another entry.
In plain terms, what class is CC(C)(O)Cc1cc2nc(-c3nnc4ccc([C@@H](N5CC[C@H](N)C5)C(F)(F)F)cn34)ccc2cc1F [Example 236, dihydrochloride] ? class B

====

- tested_system: PIM-1 (Homo sapiens, UniProt P11309)
- Sequence (P11309 whole entry, species assumed): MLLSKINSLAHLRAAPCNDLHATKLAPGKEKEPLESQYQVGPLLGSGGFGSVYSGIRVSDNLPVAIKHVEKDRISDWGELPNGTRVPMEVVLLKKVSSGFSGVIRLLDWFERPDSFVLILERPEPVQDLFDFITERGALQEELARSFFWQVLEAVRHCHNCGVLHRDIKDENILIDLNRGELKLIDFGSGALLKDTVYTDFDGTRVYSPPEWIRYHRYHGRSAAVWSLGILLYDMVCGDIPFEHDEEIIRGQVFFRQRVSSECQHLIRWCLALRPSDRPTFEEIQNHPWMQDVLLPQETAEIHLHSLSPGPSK
- experiment: Enzyme PIM-1 Assay ([33P]ATP incorporation into PIM2tide, filter plate)
- Type: biochemical
- assay_setup: averaged IC50; 35 μM ATP, 7.5 μM PIM2tide, 0.25 nM PIM-1, 60 min at 22° C.
Counter-ions that a name gives are not always drawn.
Give pIC50 for every item shown.
One number for each entry, as −log10 of the molar value.

CC(C)Oc1cccc2ccc(-c3nnc4ccc([C@@H](N5CC[C@@](C)(N)C5)C(F)(F)F)cn34)nc12 [Example 91, dihydrochloride] :: 9.60
CO[C@@H](C)COc1cccc2ccc(-c3nnc4ccc([C@@H](N5CC[C@H](N)C5)C(F)(F)F)cn34)nc12 [Example 212, dihydrochloride] :: 9.85
N[C@H]1CCN([C@H](c2ccc3nnc(-c4ccc5ccc(SCCO)cc5n4)n3c2)C(F)(F)F)C1 [Example 267, hydrochloride] :: 9.46
N[C@H]1CCN([C@H](c2ccc3nnc(-c4ccc5cccc(OCC6CC6)c5n4)n3c2)C(F)(F)F)C1 (single isomer, unassigned) [Example 11, dihydrochloride] :: 9.70
N[C@H]1CCN(C(c2ccc3nnc(-c4ccc5ccc(Br)cc5n4)n3c2)C(F)(F)F)C1 (stereo partly shown) [Example 2, dihydrochloride] :: 9.72

Look at each compound and report its pIC50.
1. CCOc1ccc2ccc(-c3nnc4ccc([C@@H](N5CCC6(CCCN6)C5)C(F)(F)F)cn34)nc2c1 (stereo partly shown) [Example 257, dihydrochloride]
2. Cc1c(-c2cnn(C)c2)ccc2ccc(-c3nnc4ccc([C@@H](N5CC[C@H](N)C5)C(F)(F)F)cn34)nc12 [Example 191, dihydrochloride]
3. FC(F)(F)[C@@H](c1ccc2nnc(-c3ccc4ccc(Cl)cc4n3)n2c1)N1C[C@@H]2C[C@H]1CN2 [Example 64, dihydrochloride]
4. C[C@H](c1ccc2nnc(-c3ccc4cccc(C(C)(C)C)c4n3)n2c1)N1CC[C@H](N)C1 [Example 307, trihydrochloride]
5. CC(C)Oc1cc(F)cc2ccc(-c3nnc4ccc([C@@H](N5C[C@@H](N)[C@@H](O)C5)C(F)(F)F)cn34)nc12 [Example 132, dihydrochloride]
6. COCC1(c2cc3nc(-c4nnc5ccc([C@@H](N6CC[C@H](N)C6)C(F)(F)F)cn45)ccc3cc2F)CC1 [Example 165, dihydrochloride]
7. N[C@H]1CCN([C@H](c2ccc3nnc(-c4ccc5cc(F)c(C6(CO)CC6)cc5n4)n3c2)C(F)(F)F)C1 [Example 164, dihydrochloride]

1. 8.84
2. 9.70
3. 8.03
4. 8.79
5. 8.35
6. 8.42
7. 8.58

Look at each compound and report its pIC50.
1. N[C@H]1CCN([C@H](c2ccc3nnc(-c4ccc5cc(F)c(OCCO)cc5n4)n3c2)C(F)(F)F)C1 [Example 123, hydrochloride]
2. CC(C)NC(=O)c1ccc2ccc(-c3nnc4ccc([C@@H](N5CC[C@@H](N)C5)C(F)(F)F)cn34)nc2c1 [Example 49, dihydrochloride]
3. CCOc1cc2nc(-c3nnc4ccc([C@@H](N5CC[C@](C)(N)C5)C(F)(F)F)cn34)ccc2cc1F [Example 247, dihydrochloride]
4. CC(C)(C)c1cccc2ccc(-c3nnc4ccc([C@@H](N5C[C@@H](N)[C@@H](O)C5)C(F)(F)F)cn34)nc12 [Example 130, dihydrochloride]
5. COCCc1ccc2ccc(-c3nnc4ccc([C@@H](N5CC[C@H](N)C5)C(F)(F)F)cn34)nc2c1 [Example 269, dihydrochloride]
6. COCc1cccc2ccc(-c3nnc4ccc([C@@H](N5CC[C@H](N)C5)C(F)(F)F)cn34)nc12 [Example 185, dihydrochloride]
7. COCCOc1ccc2ccc(-c3nnc4ccc([C@@H](N5CC[C@H](N)C5)C(F)(F)F)cn34)nc2c1C [Example 117, hydrochloride]

1: 9.70; 2: 9.66; 3: 9.39; 4: 8.04; 5: 9.43; 6: 9.43; 7: 9.68
